Cited source for all entries: patent US20210079109A1

- target or test system: T1, recombinant human CD63 extracellular loop 2 expressed with a C-terminal human Fc tag (human)
- T1 construct: also called hCD63 EC loop 2-hFc; human CD63 EC loop 2-Fc
- T1 sequence (chain, as listed by the source limits assumed): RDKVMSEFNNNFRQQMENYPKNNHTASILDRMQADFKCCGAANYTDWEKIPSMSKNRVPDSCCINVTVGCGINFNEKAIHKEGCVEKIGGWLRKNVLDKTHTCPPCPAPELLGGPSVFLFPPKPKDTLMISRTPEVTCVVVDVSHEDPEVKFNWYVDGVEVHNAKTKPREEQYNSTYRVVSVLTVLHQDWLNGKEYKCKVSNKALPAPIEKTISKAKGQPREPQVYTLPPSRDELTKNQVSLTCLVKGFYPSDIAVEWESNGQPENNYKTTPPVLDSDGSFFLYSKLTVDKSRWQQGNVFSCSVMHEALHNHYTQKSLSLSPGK
- method: SPR Biacore, mAb captured, 37C
- Experimental: Equilibrium dissociation constants (KD) for different CD63 (EC2) loop reagents binding to purified anti-CD63 monoclonal antibodies were determined using a real-time surface plasmon resonance based Biacore T200 biosensor or Biacore 2000 biosensor. […] The association rate (Kₐ) and dissociation rate (kd) were determined by fitting the real-time binding sensorgrams to a 1:1 binding model with mass transport limitation using Scrubber 2.0c curve-fitting software. […]
For each record, write down the corresponding Kd.
Answers are plain numbers, in nM.

GET /values?readout=Kd&item= H2M12452N (antibody, V domains shown, also called H2aM12452N) VH: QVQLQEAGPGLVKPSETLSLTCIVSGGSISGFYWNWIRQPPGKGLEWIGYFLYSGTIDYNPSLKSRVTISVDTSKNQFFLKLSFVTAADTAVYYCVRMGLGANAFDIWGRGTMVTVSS VL: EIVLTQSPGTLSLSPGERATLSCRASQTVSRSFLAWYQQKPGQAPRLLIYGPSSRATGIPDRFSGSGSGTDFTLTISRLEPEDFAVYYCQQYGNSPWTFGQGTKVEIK
1.1

Give one value of Kd per listed binder.
1. H1M12451N (antibody, V domains shown) VH: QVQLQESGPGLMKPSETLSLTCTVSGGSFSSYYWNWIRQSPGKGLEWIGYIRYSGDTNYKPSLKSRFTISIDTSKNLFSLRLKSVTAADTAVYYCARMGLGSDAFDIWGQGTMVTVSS VL: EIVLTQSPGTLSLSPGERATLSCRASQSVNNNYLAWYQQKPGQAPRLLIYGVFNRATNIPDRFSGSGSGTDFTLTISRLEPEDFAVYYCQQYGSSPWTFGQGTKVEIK
2. H1M12388N (antibody, V domains shown) VH: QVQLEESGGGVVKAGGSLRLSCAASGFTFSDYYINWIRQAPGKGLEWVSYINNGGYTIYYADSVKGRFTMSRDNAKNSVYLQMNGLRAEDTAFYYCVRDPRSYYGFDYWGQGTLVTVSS VL: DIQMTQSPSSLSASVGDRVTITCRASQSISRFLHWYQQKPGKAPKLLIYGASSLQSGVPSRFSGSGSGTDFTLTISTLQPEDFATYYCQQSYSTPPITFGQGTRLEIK

1. 0.509
2. 0.863
